# Protocol text: Solubility determination in water
# Type: physicochemical
# Setup conditions: each ml of water; room temperature; read-out: solubility in water (amount dissolved by each ml of water)
Metric name: solubility

Compound: C=Cc1c(C)c2cc3nc(cc4[nH]c(cc5nc(cc1[nH]2)C(C)=C5C(C)OCCCCCC)c(C)c4CCC(=O)[O-])C(CCC(=O)[O-])=C3C.[Na+].[Na+] (centres unmarked) [Photohexer P-2]
solubility: ~10000 µg/mL

-- ask Using the record for C=CC1=C(C)c2cc3[nH]c(cc4nc(cc5[nH]c(cc1n2)c(C)c5CCC(=O)[O-])C(CCC(=O)[O-])=C4C)c(C)c3C(C)OCCCCCC.[Na+].[Na+] (centres unmarked) [Photohexer P-1] , report its solubility.
-- reply ~3300 µg/mL
